target: trypsin (Bos taurus, UniProt P00760); construct: gene PRSS1; experiment: Trypsin inhibition, fluorimetric enzyme assay; format: biochemical; settings: 80 μM inhibitor, 36.5° C.; read-out: Residual Activity (%) Trypsin
Sequence (P00760 24-246): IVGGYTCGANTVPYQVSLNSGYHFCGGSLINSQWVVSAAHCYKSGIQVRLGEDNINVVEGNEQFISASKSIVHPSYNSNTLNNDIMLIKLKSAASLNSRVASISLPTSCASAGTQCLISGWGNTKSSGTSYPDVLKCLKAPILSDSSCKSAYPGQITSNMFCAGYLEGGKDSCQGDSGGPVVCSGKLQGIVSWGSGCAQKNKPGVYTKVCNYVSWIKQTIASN
Residues, ends and D or L forms follow the SMILES beside them.
Here, each record is paired with measured remaining activity at 80 µM data.
Lab book: enter the figure in %, no units written.

1) CCCCCCCCCCCCCCCCNC(=O)[C@H](CCCCN)NC(=O)[C@H](C)NC(=O)[C@H](C)NC(=O)[C@H](CCCCN)NC(=O)CCCCCCCCCCCCCCC [C16-KAAK-C16] (HELM PEPTIDE1{[CCCCCCCCCCCCCCCC(=O)[*:2]].K.A.A.K.[CCCCCCCCCCCCCCCCN[*:1]]}$$$$V2.0) : 7
2) CCCCCCCCCCCCCCCCNC(=O)[C@H](CCCCN)NC(=O)[C@H](C)NC(=O)[C@H](C)NC(=O)[C@H](C)NC(=O)[C@H](CCCCN)NC(=O)CCCCCCCCCCCCCCC [C16-KAAAK-C16] (HELM PEPTIDE1{[CCCCCCCCCCCCCCCC(=O)[*:2]].K.A.A.A.K.[CCCCCCCCCCCCCCCCN[*:1]]}$$$$V2.0) : 40
3) CCCCCCCCCCCCCCCCNC(=O)[C@H](CCCCN)NC(=O)[C@H](C)NC(=O)[C@H](CCCCN)NC(=O)CCCCCCCCCCCCCCC : 21

The record that follows has no remaining activity at 80 µM shown yet.
Query CCCCCCCCCCCCCCCCNC(=O)[C@H](CCCCN)NC(=O)[C@H](C)NC(=O)[C@H](C)NC(=O)[C@H](C)NC(=O)[C@H](C)NC(=O)[C@H](CCCCN)NC(=O)CCCCCCCCCCCCCCC [C16-KAAAAK-C16] (HELM PEPTIDE1{[CCCCCCCCCCCCCCCC(=O)[*:2]].K.A.A.A.A.K.[CCCCCCCCCCCCCCCCN[*:1]]}$$$$V2.0) yields remaining activity at 80 µM of 20
